System: NCI-H226 lung
Assay: NCI-60 one-dose screen, 48 h
Conditions: 10 µM unless noted
The panel holds about 83,000 compounds, 20% with a hit somewhere; the sample as a whole holds those more often. The source made the active and inactive calls. How the source made its calls: active means growth percent below 10; inactive means the rest.
Outcome codes: active, inactive

• CCCn1cnc2c(c1=N)C(c1ccc(OC)cc1)c1sc3c(C)cccc3c1O2 (stereo not given) = inactive
• COc1cc(Cn2cc3c(c2)-c2onc(CN4CCOCC4)c2CC3)cc(OC)c1OC = inactive
• CC(C)(C)c1ccc(C(=O)Nc2nc3ccc(O)cc3s2)cc1 = inactive
• COCCNc1ccc2ncc(C#Cc3cncc(C(=O)Nc4ccc(CN5CCN(C)CC5)c(C(F)(F)F)c4)c3)n2n1 = active
• CC1=NC2=NN3C(=NN2C(c2ccccc2)=C1)N=NC(c1ccc(Br)cc1)=C3c1ccc(Br)cc1 = inactive

* * *

System: 786-0 renal
Test: NCI-60 one-dose screen, 48 h (100 = growth as untreated, 0 = no growth, -100 = all killed)
Conditions: 10 µM unless noted
Procedure: Cells are grown in 96 well plates and exposed to the test compound for 48 hours. Compounds are tested at a single concentration, which is 10^-5 M for most compounds. The reported endpoint is percent growth (GI% or GIPRCNT), where numbers from 0 - 100% represent growth inhibition, and numbers from -100% - 0 represent cell death. For example, a value of 40 represents 60% growth inhibition. A value of 0 means no net growth occurred over the course of the experiment. […]
About 83,000 compounds went through this panel and 20% of them were active in at least one assay; those are over-represented in the sample as a whole. Activity calls are given as the source filed them. Rule for the calls: active = growth percent below 10; inactive = the rest.
attribute_measured: growth

* CN1CCN(c2ccc(/C=N/n3cnc4oc(-c5ccccc5)cc4c3=N)cc2)CC1 | 52.8% (inactive)
* CC1(C)[C@@H](O)CC[C@]2(C)[C@H]3CC[C@@H]4[C@H]5[C@H](C(=O)/C=C\c6ccccn6)CC[C@]5(O)CC[C@@]4(C)[C@]3(C)CC[C@@H]12 | 32.7% (inactive)
* Cc1cc(-c2ccc(Cl)cc2)n(Cc2nnc(SCC(=O)Nc3ccc(S(N)(=O)=O)cc3)n2C2CCCCC2)n1 | 108% (inactive)
* CCCSc1nc(Nc2ccc(/C(C)=N\NC(N)=S)cc2)c(C#N)c(-c2ccccc2)n1 | 60.3% (inactive)

* * *

Tested on: KM12 colon
Assay: NCI-60 one-dose screen, 48 h (100 = growth as untreated, 0 = no growth, -100 = all killed)
Conditions: 10 µM unless noted
Experimental: Growth inhibition of the KM12 human tumor cell line is measured as a screen for anti-cancer activity. Cells are grown in 96 well plates and exposed to the test compound for 48 hours. Compounds are tested at a single concentration, which is 10^-5 M for most compounds. The reported endpoint is percent growth (GI% or GIPRCNT), where numbers from 0 - 100% represent growth inhibition, and numbers from -100% - 0 represent cell death. For example, a value of 40 represents 60% growth inhibition. […]
About 83,000 compounds went through this panel and 20% of them were active in at least one assay; those are over-represented in the sample as a whole.
Measured growth accompanies every entry in the list below.
attribute_measured: growth (%)

* Nc1ccccc1NC(=O)c1ccc(NC(=O)C/C=C/c2cccnc2)cc1 | 33.2
* O=C(c1ccc(O)c(C(=O)N2Cc3ccc(OCCC[P+](c4ccccc4)(c4ccccc4)c4ccccc4)cc3C2)c1)N1Cc2cccc(F)c2C1 | 57.8
* O=C(Nc1nc2ccc([N+](=O)[O-])cc2s1)Nc1ccccc1Cl | 26.4
* COc1cc2c(cc1OC)C(Sc1ccc(F)cc1)c1c(nc(N)c(C#N)c1N)O2 (configuration not stated) | -62.9
* C=C(C=O)[C@@H]1CC[C@]2(C)[C@H](CC=C3[C@H]4[C@@H](C)[C@H](C)CC[C@]4(C(=O)OC)CC[C@]32C)[C@@]1(C)CCC#N | -4.32
* CCC(NC(c1cc2cccc3ccc4cccc1c4c32)c1nnnn1C(C)(C)C)C1CCCCC1 (configuration not stated) | 67.8
* O=C(CSc1nnc(-c2ccc(Cl)cc2)n1-c1ccccc1)Nc1cccc(Cl)c1 | 71.9
* Cc1occc1-c1nc2s/c(=C/c3ccc(-c4cc(C(F)(F)F)ccc4Cl)o3)c(=O)n2n1 | 99.9
* CN(C)CCN(C)c1ccc2ncc(C#Cc3cncc(C(=O)Nc4ccc(CN5CCN(C)CC5)c(C(F)(F)F)c4)c3)n2n1 | -39.8
* N#Cc1c(Nc2ccccc2)nn2c(-c3ccc([N+](=O)[O-])cc3)ccnc12 | 102
* NS(=O)(=O)c1ccc(Nc2nc(N/N=C/c3c[nH]c4ccccc34)nc(Nc3ccccc3)n2)cc1 | 27.3
* COc1ccccc1-n1cc(C#N)c(N)c1C(=O)c1ccc(C)cc1 | 59.6
* COc1ccc(NC(=O)Nc2ccc3c(ccn3C(=O)c3cccc(F)c3)c2)cc1 | 53
* O=C1/C(=C/C=C/c2ccco2)SC(=S)N1C1CCCCC1 | 96.9
* c1cc(-c2nc3ccc4[nH]ncc4c3c3c2CCCC3)[nH]n1 | 24
* COc1ccc(Cn2cc3c(c2-c2cc(OC)c(OC)c(OC)c2)CCc2c(CN4CCCC4)noc2-3)cc1 | 14.9
* CC1(COc2ccc3ncc(C#Cc4cncc(C(=O)Nc5cccc(C(F)(F)F)c5)c4)n3n2)COC1 | 21.1
* Cc1ccc(CSc2nc(-c3ccc(Cl)cc3)c(C#N)c(N3CCNCC3)n2)cc1 | 84.7
* C#Cc1nc(C(=O)NCCC(=O)Nc2ccc(NC(=O)c3ccc(/C=C/C(=O)c4nccn4C)cc3)cc2)cs1 | 9.96
* CC(=O)c1ccc(Nc2nc(SCC(C)C)nc(-c3ccccc3)c2C#N)cc1 | 112
* O=c1[nH]c2ccccc2cc1CSc1ccccc1Nc1nccc(-c2ccc(Cl)cc2)n1 | 100
* CC(C)(O)c1cncc(-c2ccc3ncnc(NCc4ccccc4)c3c2)c1 | 101
* Fc1ccc(-c2cc3nc(C(Cl)Cl)nc(-c4ccc(F)cc4)n3n2)cc1 | -12.5
* C=CCn1c(SCC(=O)Nc2ccc(C(=O)/C=C/c3cccc([N+](=O)[O-])c3)cc2)nnc1-c1c[nH]c2ccccc12 | 93.4
* O=S(=O)(Nc1ccc(I)cc1Cl)c1ccc(-c2cnc(C3CC3)o2)cc1 | 26
* CC(=O)c1ccc(Nc2nc(SCC(C)C)nc(-c3ccc(F)cc3)c2C#N)cc1 | 104
* Cn1cc(-c2nc(N)nnc2-c2c[nH]c3ccc(Br)cc23)c2cc(Br)ccc21 | 27.6
* CN1c2ccccc2Sc2cc(C=C(C#N)C#N)ccc21 | 103
* O=C(Nc1ccc2c(ccn2Cc2ccccn2)c1)c1cnccn1 | 100
* COc1ccc(C(=O)c2c(N)c(C#N)cn2-c2ccccc2OC)cc1 | 27.5
* CCCn1cnc2c(c1=N)C(c1ccc(Cl)cc1)c1sc3c(C)cccc3c1O2 (configuration not stated) | 10.9
* CC[C@]12C=CCN3CC[C@@]4(c5cc(NC(=O)COc6cc(O)c7c(=O)cc(-c8ccccc8)oc7c6)c(OC)cc5N(C)[C@H]4[C@@](O)(C(=O)OC)[C@@H]1OC(C)=O)[C@@H]32 | -82.2
* Cc1cccc2c3c(sc12)C(c1ccc(Cl)cc1)c1c(nc(CC(=O)Nc2ccccc2)[nH]c1=O)O3 (configuration not stated) | 37.7
* COc1ccc(N2C(=O)c3cc(Cl)ccc3NC2SCc2ccccc2)cc1 (configuration not stated) | 96.9
* COC(=O)C[Se]C(=O)Cc1c(C)n(C(=O)c2ccc(Cl)cc2)c2ccc(OC)cc12 | 26.4
* Cn1cc(CNc2nc3ccc(OC/C(=C/F)CN)cc3o2)ccc1=O | 105
* NC(N)=Nc1ccc(Oc2cccc(Nc3ccc(Cl)cc3)c2)cn1 | -92.6
